FYI, the data here is from ChEMBL document CHEMBL1136016.

molecular target: Adenosine receptor A1 (Homo sapiens, UniProt P30542); test: Displacement of [3H]DPCPX from human Adenosine A1 receptor expressed in CHO cells; range 346-586; format: cell-based
readoutName: pKi
// scale note: pKi = -log10(conc_M); give the bare number

Requested read-out pKi, target or system Adenosine receptor A1 (Homo sapiens, UniProt P30542), entry `CCn1cc2c(nc(NC(=O)Nc3ccc(C(F)(F)F)cc3)n3nc(-c4ccco4)nc23)n1`
6.35

----------
molecular target: Adenosine receptor A2a (Homo sapiens, UniProt P29274); assay: Displacement of [3H]SCH-58261 from human Adenosine A2A receptor expressed in HEK293 cells; range 103-140; assay type: cell-based
Sequence (P29274 whole entry): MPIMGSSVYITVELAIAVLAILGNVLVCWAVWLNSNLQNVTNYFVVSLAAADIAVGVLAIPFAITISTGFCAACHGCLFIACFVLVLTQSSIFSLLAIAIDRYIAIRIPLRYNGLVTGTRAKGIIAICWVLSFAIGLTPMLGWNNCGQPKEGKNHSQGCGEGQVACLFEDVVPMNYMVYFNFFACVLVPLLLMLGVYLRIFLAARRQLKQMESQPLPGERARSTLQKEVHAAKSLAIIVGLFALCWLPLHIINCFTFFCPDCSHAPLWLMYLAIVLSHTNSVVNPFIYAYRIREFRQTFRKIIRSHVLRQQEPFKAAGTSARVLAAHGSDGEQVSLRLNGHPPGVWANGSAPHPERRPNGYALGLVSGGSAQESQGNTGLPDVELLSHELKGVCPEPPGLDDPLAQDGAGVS
readoutName: pKi
// scale note: pKi = -log10(conc_M); give the bare number

Tell me the measured pKi of `Cn1cc2c(nc(NC(=O)Nc3ccc(F)cc3)n3nc(-c4ccco4)nc23)n1` , please.
6.92

----------
target: Adenosine receptor A2a (Homo sapiens); assay: Displacement of [3H]SCH-58261 from human Adenosine A2A receptor expressed in HEK293 cells; range 23-40; assay type: cell-based
readoutName: pKi
// scale note: pKi = -log10(conc_M); give the bare number

Requested read-out pKi, target or system Adenosine receptor A2a (Homo sapiens), entry `CCn1cc2c(nc(NC(=O)Nc3ccc(C)cc3)n3nc(-c4ccco4)nc23)n1`
7.52

----------
target: Adenosine receptor A2b (Homo sapiens, UniProt P29275); assay: Displacement of [3H]DPCPX from human Adenosine A2B receptor expressed in HEK293 cells; range 25-40; assay type: cell-based
readoutName: pKi
// scale note: pKi = -log10(conc_M); give the bare number

Tell me the measured pKi of `CCCn1cc2c(nc(NC(=O)Nc3ccc(Cl)c(Cl)c3)n3nc(-c4ccco4)nc23)n1` , please.
7.51

----------
Molecular target: Adenosine receptor A1 (Homo sapiens)
Sequence (P30542 whole entry): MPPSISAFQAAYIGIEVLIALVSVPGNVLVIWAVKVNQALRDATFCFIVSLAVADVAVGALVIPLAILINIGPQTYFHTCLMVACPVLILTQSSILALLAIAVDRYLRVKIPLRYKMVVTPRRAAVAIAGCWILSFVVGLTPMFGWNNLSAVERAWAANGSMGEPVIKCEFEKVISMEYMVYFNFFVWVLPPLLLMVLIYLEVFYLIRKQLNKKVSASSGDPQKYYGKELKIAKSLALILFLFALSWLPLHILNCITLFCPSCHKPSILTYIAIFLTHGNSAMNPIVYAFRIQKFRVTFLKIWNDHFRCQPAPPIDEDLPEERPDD
Assay: Displacement of [3H]DPCPX from human Adenosine A1 receptor expressed in CHO cells; range 275-386
Assay type: cell-based
readoutName: pKi
// scale note: pKi = -log10(conc_M); give the bare number

Tell me the measured pKi of `CCn1cc2c(nc(NC(=O)Nc3ccccc3)n3nc(-c4ccco4)nc23)n1` , please.
6.49

----------
biological target: Adenosine receptor A3 (Homo sapiens, UniProt P0DMS8); assay: biochemical
Description: Displacement of [3H]MRE3008-F20 from human Adenosine A3 receptor expressed in HEK cells; range 0.40-0.62
readoutName: Ki (nM)
Enter your answer as a number in nM; do not include the unit.

Tell me the measured Ki of `CCCCn1cc2c(nc(NC(=O)Nc3ccc4c(c3)OCO4)n3nc(-c4ccco4)nc23)n1` , please.
0.5

----------
molecular target: Adenosine receptor A2a (Homo sapiens); test: Displacement of [3H]SCH-58261 from human Adenosine A2A receptor expressed in HEK293 cells; range 146-220; format: cell-based
readoutName: pKi
// scale note: pKi = -log10(conc_M); give the bare number

Tell me the measured pKi of `COc1ccccc1NC(=O)Nc1nc2nn(C)cc2c2nc(-c3ccco3)nn12` , please.
6.74

----------
molecular target: Adenosine receptor A2b (Homo sapiens); assay: Displacement of [3H]DPCPX from human Adenosine A2B receptor expressed in HEK293 cells; range 118-146; format: cell-based
readoutName: Ki (nM)
Enter your answer as a number in nM; do not include the unit.

Tell me the measured Ki of `CCn1cc2c(nc(NC(=O)Nc3ccc(C)cc3)n3nc(-c4ccco4)nc23)n1` , please.
132

----------
Biological target: Adenosine receptor A2b (Homo sapiens, UniProt P29275)
Sequence (P29275 whole entry): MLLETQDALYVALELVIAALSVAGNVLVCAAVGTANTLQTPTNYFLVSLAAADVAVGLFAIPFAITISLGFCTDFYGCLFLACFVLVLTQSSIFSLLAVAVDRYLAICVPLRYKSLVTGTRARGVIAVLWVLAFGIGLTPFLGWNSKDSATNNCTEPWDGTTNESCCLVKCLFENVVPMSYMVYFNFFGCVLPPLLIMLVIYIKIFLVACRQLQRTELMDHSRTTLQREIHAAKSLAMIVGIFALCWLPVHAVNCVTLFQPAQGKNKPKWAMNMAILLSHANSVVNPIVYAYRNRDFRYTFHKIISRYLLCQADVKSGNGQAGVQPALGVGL
Test: Displacement of [3H]DPCPX from human Adenosine A2B receptor expressed in HEK293 cells; range 56-103
Format: cell-based
readoutName: Ki (nM)
Enter your answer as a number in nM; do not include the unit.

Tell me the measured Ki of `CCCn1cc2c(nc(NC(=O)Nc3ccc(Cl)cc3)n3nc(-c4ccco4)nc23)n1` , please.
76

----------
target: Adenosine receptor A2b (Homo sapiens, UniProt P29275); test: Displacement of [3H]DPCPX from human Adenosine A2B receptor expressed in HEK293 cells; type: cell-based
readoutName: pKi
// scale note: pKi = -log10(conc_M); give the bare number

Requested read-out pKi, target or system Adenosine receptor A2b (Homo sapiens, UniProt P29275), entry `Cn1cc2c(nc(NC(=O)Cc3ccccc3)n3nc(-c4ccco4)nc23)n1`
6.78

----------
Biological target: Adenosine receptor A2b (Homo sapiens)
Sequence (P29275 whole entry): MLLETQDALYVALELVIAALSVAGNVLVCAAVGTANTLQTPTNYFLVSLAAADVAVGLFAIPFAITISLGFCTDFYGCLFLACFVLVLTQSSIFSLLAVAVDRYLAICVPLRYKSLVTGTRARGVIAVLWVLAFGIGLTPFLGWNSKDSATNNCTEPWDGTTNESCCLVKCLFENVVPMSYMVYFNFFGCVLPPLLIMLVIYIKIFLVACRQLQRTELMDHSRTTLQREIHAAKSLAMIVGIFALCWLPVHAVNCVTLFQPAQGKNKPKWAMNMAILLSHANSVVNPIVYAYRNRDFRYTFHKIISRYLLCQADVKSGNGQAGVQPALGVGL
Assay: Displacement of [3H]DPCPX from human Adenosine A2B receptor expressed in HEK293 cells; range 187-265
Assay type: cell-based
readoutName: pKi
// scale note: pKi = -log10(conc_M); give the bare number

Tell me the measured pKi of `COc1ccccc1NC(=O)Nc1nc2nn(C)cc2c2nc(-c3ccco3)nn12` , please.
6.65

----------
Measured Ki, listed per entry.
target: Adenosine receptor A2b (Homo sapiens); test: Displacement of [3H]DPCPX from human Adenosine A2B receptor expressed in HEK293 cells; range 124-180; format: cell-based
Enter your answer as a number in µM; do not include the unit.

Tell me the measured Ki of `CCCn1cc2c(nc(NC(=O)Nc3ccc(Br)cc3)n3nc(-c4ccco4)nc23)n1` , please.
0.15

Tell me the measured Ki of `CCCCn1cc2c(nc(NC(=O)Nc3cccc(OC)c3)n3nc(-c4ccco4)nc23)n1` , please.
0.15

----------
target: Adenosine receptor A2a (Homo sapiens, UniProt P29274); test: Displacement of [3H]SCH-58261 from human Adenosine A2A receptor expressed in HEK293 cells; range 112-177; type: cell-based
readoutName: pKi
// scale note: pKi = -log10(conc_M); give the bare number

Tell me the measured pKi of `Cn1cc2c(nc(NC(=O)Nc3ccc(C(F)(F)F)cc3)n3nc(-c4ccco4)nc23)n1` , please.
6.85

----------
molecular target: Adenosine receptor A2b (Homo sapiens, UniProt P29275); test: Displacement of [3H]DPCPX from human Adenosine A2B receptor expressed in HEK293 cells; range 152-216; type: cell-based
readoutName: pKi
// scale note: pKi = -log10(conc_M); give the bare number

Tell me the measured pKi of `Cn1cc2c(nc(NC(=O)Nc3ccc(Br)cc3)n3nc(-c4ccco4)nc23)n1` , please.
6.74

----------
Biological target: Adenosine receptor A3 (Homo sapiens, UniProt P0DMS8)
Sequence (P0DMS8 whole entry): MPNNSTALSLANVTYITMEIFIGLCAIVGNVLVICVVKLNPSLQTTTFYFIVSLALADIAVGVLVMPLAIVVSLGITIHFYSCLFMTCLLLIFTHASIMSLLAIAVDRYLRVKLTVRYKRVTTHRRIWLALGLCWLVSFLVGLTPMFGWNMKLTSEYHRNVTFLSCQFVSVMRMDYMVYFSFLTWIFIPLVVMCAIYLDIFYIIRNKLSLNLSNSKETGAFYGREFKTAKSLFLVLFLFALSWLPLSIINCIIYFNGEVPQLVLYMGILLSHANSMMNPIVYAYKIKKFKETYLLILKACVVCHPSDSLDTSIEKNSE
Experiment: Displacement of [3H]MRE3008-F20 from human Adenosine A3 receptor expressed in HEK cells; range 0.23-0.36
Assay type: cell-based, HEK293
readoutName: pKi
// scale note: pKi = -log10(conc_M); give the bare number

Tell me the measured pKi of `Cn1cc2c(nc(NC(=O)Nc3ccc(Cl)cc3)n3nc(-c4ccco4)nc23)n1` , please.
9.54
